Biological target: GlyT1 transporter (Homo sapiens)
Construct: endogenously expressing the GlyT1 transporter
Sequence (P48067 whole entry): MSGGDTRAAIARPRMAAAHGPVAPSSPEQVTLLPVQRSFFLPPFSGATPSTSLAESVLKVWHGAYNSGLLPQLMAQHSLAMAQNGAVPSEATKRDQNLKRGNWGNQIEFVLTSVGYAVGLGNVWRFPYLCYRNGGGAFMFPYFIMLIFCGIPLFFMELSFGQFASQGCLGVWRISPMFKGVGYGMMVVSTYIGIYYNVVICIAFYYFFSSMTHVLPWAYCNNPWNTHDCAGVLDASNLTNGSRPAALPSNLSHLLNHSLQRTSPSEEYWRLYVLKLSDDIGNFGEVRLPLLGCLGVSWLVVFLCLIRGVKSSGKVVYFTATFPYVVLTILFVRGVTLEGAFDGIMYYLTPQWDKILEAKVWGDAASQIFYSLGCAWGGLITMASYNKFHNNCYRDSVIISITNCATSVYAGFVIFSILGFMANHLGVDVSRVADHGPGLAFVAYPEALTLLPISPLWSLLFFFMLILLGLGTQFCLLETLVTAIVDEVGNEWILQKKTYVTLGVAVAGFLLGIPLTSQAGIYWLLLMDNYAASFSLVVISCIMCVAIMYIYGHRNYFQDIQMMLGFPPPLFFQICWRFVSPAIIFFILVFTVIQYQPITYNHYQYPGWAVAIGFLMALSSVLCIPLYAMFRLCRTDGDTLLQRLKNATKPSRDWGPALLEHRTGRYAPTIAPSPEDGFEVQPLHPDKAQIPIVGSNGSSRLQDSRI
Assay: GlyT1 assay: 3H-glycine uptake into SK-N-MC cells (Cytostar-T format)
Details: glycine uptake in human SK-N-MC cells endogenously expressing GlyT1; 500 nM glycine, 1% DMSO, signal recorded over 60 min
Measured Metric: IC50 (µM)

Reference set (8 entries):
molecule="CS(=O)(=O)c1ccc(O[C@@H]2CCOC2)c(C(=O)N2CC3CC3(c3noc(C(F)(F)F)n3)C2)c1 (mixture of isomers) [Example 138]" measured_metric=IC50 observed_measurement=0.261
molecule="C[C@H](Oc1ccc(S(C)(=O)=O)cc1C(=O)N1CC2CC2(c2cccc(C(F)(F)F)n2)C1)C(F)(F)F (mixture of isomers) [Example 54]" measured_metric=IC50 observed_measurement=0.016
molecule="C[C@H](Oc1ccc(S(C)(=O)=O)cc1C(=O)N1CC2CC2(c2nnc(C3(C(F)(F)F)CC3)o2)C1)C(F)(F)F (single isomer, unassigned) [Example 152]" measured_metric=IC50 observed_measurement=0.01
molecule="C[C@H](Oc1ccc(S(C)(=O)=O)cc1C(=O)N1CC2CC2(c2cc(C(F)(F)F)on2)C1)C(F)(F)F (single isomer, unassigned) [Example 47]" measured_metric=IC50 observed_measurement=0.007
molecule="C[C@@H](Oc1ccc(S(C)(=O)=O)cc1C(=O)N1CC2CC2(c2nnc(C3(C(F)(F)F)CC3)o2)C1)C(F)(F)F (single isomer, unassigned) [Example 149]" measured_metric=IC50 observed_measurement=0.008
molecule="C[C@H](Oc1ccc(S(C)(=O)=O)cc1C(=O)N1CC2CC2(c2csc(C(F)(F)F)n2)C1)C(F)(F)F (mixture of isomers) [Example 26]" measured_metric=IC50 observed_measurement=0.008
molecule="CC(Oc1ccc(C#N)cc1C(=O)N1CC2CC2(c2noc(C(F)(F)F)n2)C1)C(F)(F)F (stereo not drawn)" measured_metric=IC50 observed_measurement=0.143
molecule="C[C@@H](Oc1ccc(S(C)(=O)=O)cc1C(=O)N1CC2CC2(c2nccc(C(F)(F)F)n2)C1)C(F)(F)F (single isomer, unassigned) [Example 19]" measured_metric=IC50 observed_measurement=0.005

a. C[C@H](Oc1ccc(S(C)(=O)=O)cc1C(=O)N1CC2CC2(c2cccc(C(F)(F)F)n2)C1)C(F)(F)F (single isomer, unassigned) [Example 55]
b. Cc1noc(C23CC2CN(C(=O)c2cc(S(C)(=O)=O)ccc2O[C@H](C)C(F)(F)F)C3)n1 (mixture of isomers)
c. CC(C)Oc1ccc(S(C)(=O)=O)cc1C(=O)N1CC2CC2(c2noc(C(F)(F)F)n2)C1 (single isomer, unassigned) [Example 97]
d. Cc1nc(C23CC2CN(C(=O)c2cc(S(C)(=O)=O)ccc2O[C@@H](C)C(F)(F)F)C3)no1 (single isomer, unassigned) [Example 8]
e. C[C@H](Oc1ccc(S(C)(=O)=O)cc1C(=O)N1CC2CC2(c2coc(C3CC3)n2)C1)C(F)(F)F (mixture of isomers)
Descending sort on IC50 required. Give the order by naming the labels one after another as requested.
d, b, a, c, e
(d: 0.474 µM, b: 0.101 µM, a: 0.022 µM, c: 0.008 µM, e: 0.003 µM)

I. C[C@H](Oc1ccc(S(C)(=O)=O)cc1C(=O)N1CC2CC2(c2nc(C(F)(F)F)co2)C1)C(F)(F)F (single isomer, unassigned)
II. C[C@H](Oc1ccc(S(C)(=O)=O)cc1C(=O)N1CC2CC2(c2ncc(C(F)(F)F)o2)C1)C(F)(F)F (mixture of isomers) [Example 131]
Could you please tell me which of these two has the higher IC50: I or II ? The response must carry the label of the picked entry.
I
(I: 0.12 µM, II: 0.019 µM)

P. C[C@@H](Oc1ccc(S(C)(=O)=O)cc1C(=O)N1CC2CC2(c2nnc(C3(C(F)(F)F)CC3)o2)C1)C(F)(F)F (single isomer, unassigned) [Example 150]
Q. C[C@H](Oc1ccc(S(C)(=O)=O)cc1C(=O)N1CC2CC2(c2noc(C3CC3(F)F)n2)C1)C(F)(F)F (mixture of isomers)
Could you please tell me which of these two has the higher IC50: P or Q ? The response must carry the label of the picked entry.
P
(P: 0.232 µM, Q: 0.01 µM)

a. C[C@@H](Oc1ccc(S(C)(=O)=O)cc1C(=O)N1CC2CC2(c2nnc(C(F)(F)F)o2)C1)C(F)(F)F (mixture of isomers) [Example 122]
b. C[C@H](Oc1ccc(S(C)(=O)=O)cc1C(=O)N1CC2CC2(c2nccc(C(F)(F)F)n2)C1)C(F)(F)F (mixture of isomers) [Example 15]
c. C[C@H](Oc1ccc(S(C)(=O)=O)cc1C(=O)N1CC2CC2(c2ncco2)C1)C(F)(F)F (mixture of isomers)
d. CCS(=O)(=O)c1ccc(O[C@@H](C)C(F)(F)F)c(C(=O)N2CC3CC3(c3cc(C(F)(F)F)on3)C2)c1 (single isomer, unassigned) [Example 103]
List by increasing IC50. Give the order by naming the labels one after another as requested.
d, b, a, c

I. CCS(=O)(=O)c1ccc(O[C@H](C)C(F)(F)F)c(C(=O)N2CC3CC3(c3noc(C(F)(F)F)n3)C2)c1 (mixture of isomers) [Example 92]
II. CC(C)COc1ccc(S(C)(=O)=O)cc1C(=O)N1CC2CC2(c2noc(C(F)(F)F)n2)C1 (racemic)
III. C[C@H](Oc1ccc(S(C)(=O)=O)cc1C(=O)N1CC2CC2(c2noc(C3(C)COC3)n2)C1)C(F)(F)F (mixture of isomers)
List by increasing IC50. Give the order by naming the labels one after another as requested.
III, I, II
